assay.system: cyno PRLR on Baf3-cyPRLR cells (cyno)
procedure.text: cell-based or functional assay

binder	Baf3-cyPRLR proliferation IC50, µg/mL
chAb8 (antibody, human IgG1, kappa, V domains shown, chimeric, murine variable and human G1/kappa constant regions) VH: EVQLQQSGPELVKPGASVKISCKASGYTFTDYNIHWVKQSHGKSLEWIGYIYPNNDGTGYNQKFKSKATLTVDNSSSTAYMEVRSLTSEDSAVYYCARGDGNYVGDMDYWGQGTSVTVSS VL: DIQMTQSPASLSASVGETVTITCRASENIYSYLAWYQQKQGKPPQLLVYNAKTLAEGVPSRFSGGGSGTQFSLKINSLQPEDFGSYYCQHHYATPFTFGSGTKLEIKT	2.94
chAb7 (antibody, human IgG1, kappa, V domains shown, chimeric, murine variable and human G1/kappa constant regions) VH: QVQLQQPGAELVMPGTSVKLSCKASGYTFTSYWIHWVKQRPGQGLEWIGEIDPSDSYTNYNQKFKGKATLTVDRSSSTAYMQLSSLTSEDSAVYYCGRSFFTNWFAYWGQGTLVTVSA VL: DVVMTQTPLSLPVSLGDQASISCRSSQSLVHSNGNTYLHWYLQKPGQSPKLLIYKVSNRFSGVPDRFSGSGSGTDFTLKINRVEAEDLGVYFCSQSTHVPFTFGSGTKLEIKT	1.9
Ab9 (antibody, V domains shown, murine monoclonal, isotype G2b; also called murine Ab9) VH: EVQLQQSGPELVRPGASVKISCKASGYSFTDYNMHWVKQSHGKSLEWIGYIYPYNGGAGYNQKFKSKATMNVGISSSTAYMELRSLTSEDSAVYYCARGDGNYVGDMDYWGQGTSVTVSS VL: DIQMTQSPASLSASVGETVTITCRASENIYSYLAWYQQKQGKSPQLLVYNAKTLAEGVPSRFSGSGSGTQFSLKINSLQPEDFGSYYCQHHSGTPFTFGSGTKLEIK	6.4
